Target: T1, Human ST2-his (human, UniProt Q01638 19-328)
T1 construct: Expressed in CHO-K1; also called human ST2 fused with a 6-histidine tag at the C-terminus
T1 sequence: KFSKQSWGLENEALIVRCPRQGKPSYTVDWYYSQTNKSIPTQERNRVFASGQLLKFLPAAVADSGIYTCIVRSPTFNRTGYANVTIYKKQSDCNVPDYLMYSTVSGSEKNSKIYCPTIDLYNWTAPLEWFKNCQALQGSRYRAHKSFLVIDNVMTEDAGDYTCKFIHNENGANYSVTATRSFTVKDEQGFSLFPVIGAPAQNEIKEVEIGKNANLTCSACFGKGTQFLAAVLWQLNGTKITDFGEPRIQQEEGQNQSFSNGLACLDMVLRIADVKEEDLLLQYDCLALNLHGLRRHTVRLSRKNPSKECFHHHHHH
Experiment: ELISA, coated human ST2-his
quantity_name: Relative activity (%) compared with CNTO7160
Answer format: numeric, % implied, no suffix.

Prompt line: Quote Relative activity (%) compared with CNTO7160 reported for 5887-537H3+L1 (antibody, V domains shown, murine antibody; also called 5887-537H3H+L1) VH: QVTLKESGPGILQPSQTLSLTCSFSGFSLSTSGMGVGWIRQPSGKGLEWLAHIWWDDVKQYNPALKSRLTISKDTSSSQVFLKSASVDTADTATYYCARIGGDYDYFDFWGQGTTLTVSS VL: DIVLTQSPASLAVSLGQRATISCRASESVEYSGTSLMQWYQQKPGQPPKLLIYVASNVESGVPARFSGSGSGTDFSLNIHPVEEDDIAMYFCQQSRKVPWTFGGGTKLEIK please.
Response line: 72.4
